# System: Liver microsome
# procedure.details: Half life in human liver microsomes
# Format: ADME
property.name: t1/2 (min)

O=C(N[C@H](Cc1c[nH]c2ccccc12)C(=O)Nc1ccncc1)c1ccc(-c2cccc(C(F)(F)F)c2)cc1F ... 33
O=C(N[C@H](Cc1c[nH]c2ccccc12)C(=O)Nc1ccncc1)c1ccc(-c2ccc(F)c(Cl)c2)cc1F ... 28
O=C(N[C@H](Cc1c[nH]c2ccccc12)C(=O)Nc1ccncc1)c1ccc(-c2ccc(F)c(C(F)(F)F)c2)cc1F ... 29

----------
# procedure.details: Half life in mouse at 50 mg/kg, po in 20% Kolliphor
# Format: ADME, organism-based
# Set-up: dose 50 mg/kg, route oral
# measurement.setup: in vivo
property.name: half-life (h)

Here's what some known entries look like.
O=C(N[C@H](Cc1c[nH]c2ccccc12)C(=O)Nc1ccncc1)c1ccc(N2CCN(c3ccc(F)cc3F)CC2)cc1F ... 4.39
O=C(N[C@H](Cc1c[nH]c2ccccc12)C(=O)Nc1ccncc1)c1ccc(-c2ccc(F)c(F)c2)cc1F ... 3.29

P = O=C(N[C@H](Cc1c[nH]c2ccccc12)C(=O)Nc1ccncc1)c1ccc(-c2ccc(F)c(Cl)c2)cc1F
Q = O=C(N[C@H](Cc1c[nH]c2ccccc12)C(=O)Nc1ccncc1)c1ccc(-c2ccc(F)c(C(F)(F)F)c2)cc1F
Query block: Pick the one with the larger half-life: P vs Q Provide the label of your selected option as the answer.
Result block: P

----------
# procedure.details: Half life in mouse at 50 mg/kg, po in 20% HP-beta-CD
# Assay type: ADME, organism-based
# Design: dose 50 mg/kg, route oral
# measurement.setup: in vivo
property.name: half-life (min)

A = O=C(N[C@H](Cc1c[nH]c2ccccc12)C(=O)Nc1ccncc1)c1ccc(N2CCN(c3ccc(F)cc3F)CC2)cc1F
B = O=C(N[C@H](Cc1c[nH]c2ccccc12)C(=O)Nc1ccncc1)c1ccc(-c2ccc(F)c(C(F)(F)F)c2)cc1F
C = O=C(N[C@H](Cc1c[nH]c2ccccc12)C(=O)Nc1ccncc1)c1ccc(N2CCN(c3ccc(F)c(F)c3)CC2)cc1F
Query block: rank_up(items): orders items by reported half-life in ascending numerical order. Please write the labels in the order that was asked for.
Result block: C, B, A

----------
# procedure.details: Tmax in mouse at 50 mg/kg, po in 20% Kolliphor
# Assay type: ADME, organism-based
# Parameters: dose 50 mg/kg, route oral
# measurement.setup: in vivo
property.name: Tmax (h)

O=C(N[C@H](Cc1c[nH]c2ccccc12)C(=O)Nc1ccncc1)c1ccc(-c2ccc(F)c(F)c2)cc1F ... 2
O=C(N[C@H](Cc1c[nH]c2ccccc12)C(=O)Nc1ccncc1)c1ccc(-c2cc(C(F)(F)F)ccc2F)cc1F ... 2.33

P = O=C(N[C@H](Cc1c[nH]c2ccccc12)C(=O)Nc1ccncc1)c1ccc(-c2ccc(F)c(Cl)c2)cc1F
Q = O=C(N[C@H](Cc1c[nH]c2ccccc12)C(=O)Nc1ccncc1)c1ccc(N2CCN(c3ccc(F)c(F)c3)CC2)cc1F
Query block: Of the pair P and Q , name the member with the lesser recorded Tmax. Provide the label of your selected option as the answer.
Result block: P
(P: 0.75 h, Q: 4 h)

a = O=C(N[C@H](Cc1c[nH]c2ccccc12)C(=O)Nc1ccncc1)c1ccc(-c2ccc(F)c(C(F)(F)F)c2)cc1F
b = O=C(N[C@H](Cc1c[nH]c2ccccc12)C(=O)Nc1ccncc1)c1ccc(N2CCN(c3ccc(F)cc3F)CC2)cc1F
Query block: Of the pair a and b , name the member with the lesser recorded Tmax. Provide the label of your selected option as the answer.
Result block: b

----------
# target.or.test.system: Sterol 14-alpha demethylase (Trypanosoma cruzi (strain CL Brener))
# Sequence (Q7Z1V1 whole entry): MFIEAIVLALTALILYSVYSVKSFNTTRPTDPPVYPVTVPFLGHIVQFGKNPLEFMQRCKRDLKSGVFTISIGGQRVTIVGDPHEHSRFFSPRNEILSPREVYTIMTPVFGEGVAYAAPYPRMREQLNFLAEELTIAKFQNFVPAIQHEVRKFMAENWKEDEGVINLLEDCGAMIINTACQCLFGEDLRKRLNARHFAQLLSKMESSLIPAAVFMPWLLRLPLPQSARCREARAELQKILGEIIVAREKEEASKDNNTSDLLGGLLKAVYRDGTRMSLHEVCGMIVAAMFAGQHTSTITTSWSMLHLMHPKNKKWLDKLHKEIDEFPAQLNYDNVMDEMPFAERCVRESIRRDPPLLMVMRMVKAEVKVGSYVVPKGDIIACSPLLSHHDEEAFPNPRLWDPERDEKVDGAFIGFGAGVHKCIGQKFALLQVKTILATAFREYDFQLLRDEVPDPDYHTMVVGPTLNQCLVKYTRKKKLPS
# procedure.details: Binding affinity to Trypanosoma cruzi CYP51 by UV-vis titration method
# measurement.setup: read-out: Kd(app)
pKd: −log10 of the molar value.
property.name: pKd

Here's what some known entries look like.
O=C(N[C@H](Cc1c[nH]c2ccccc12)C(=O)Nc1ccncc1)c1ccc(-c2cc(C(F)(F)F)ccc2F)cc1F ... 7.92
O=C(N[C@H](Cc1c[nH]c2ccccc12)C(=O)Nc1ccncc1)c1ccc(-c2ccc(F)c(Cl)c2)cc1F ... 7.80

1 = O=C(N[C@H](Cc1c[nH]c2ccccc12)C(=O)Nc1ccncc1)c1ccc(N2CCN(c3cccc(F)c3)CC2)cc1F
2 = O=C(N[C@H](Cc1c[nH]c2ccccc12)C(=O)Nc1ccncc1)c1ccc(-c2cccc(C(F)(F)F)c2)cc1F
Query block: Of the pair 1 and 2 , name the member with the lesser recorded pKd. Provide the label of your selected option as the answer.
Result block: 1

----------
# procedure.details: Clearance in mouse at 50 mg/kg, po in 20% HP-beta-CD
# Format: ADME, organism-based
# Design: dose 50 mg/kg, route oral
# measurement.setup: in vivo
property.name: CL/F (mL/min/kg)

Here's what some known entries look like.
O=C(N[C@H](Cc1c[nH]c2ccccc12)C(=O)Nc1ccncc1)c1ccc(-c2ccc(F)c(C(F)(F)F)c2)cc1F ... 52.5
O=C(N[C@H](Cc1c[nH]c2ccccc12)C(=O)Nc1ccncc1)c1ccc(N2CCN(c3ccc(F)cc3F)CC2)cc1F ... 42.8

1 = O=C(N[C@H](Cc1c[nH]c2ccccc12)C(=O)Nc1ccncc1)c1ccc(-c2ccc(F)c(Cl)c2)cc1F
2 = O=C(N[C@H](Cc1c[nH]c2ccccc12)C(=O)Nc1ccncc1)c1ccc(N2CCN(c3ccc(F)c(F)c3)CC2)cc1F
Query block: Pick the one with the larger CL/F: 1 vs 2 Provide the label of your selected option as the answer.
Result block: 2

----------
The compounds listed here are annotated with their inhibition in vivo at 50 mg/kg.
# System: Trypanosoma cruzi
# procedure.details: Antitrypanosomal activity against Trypanosoma cruzi Y luc infected in mouse assessed as inhibition of parasitemia at 50 mg/kg, po bid in 20% Kolliphor administered for 4 consecutive days starting on day 3 of infection measured on day 7 post infection relative to vehicle-treated control
# Assay type: functional
Numbers only here, please. The scale is %.

O=C(N[C@H](Cc1c[nH]c2ccccc12)C(=O)Nc1ccncc1)c1ccc(-c2cc(C(F)(F)F)ccc2F)cc1F ... 91.3
O=C(N[C@H](Cc1c[nH]c2ccccc12)C(=O)Nc1ccncc1)c1ccc(-c2ccc(F)c(C(F)(F)F)c2)cc1F ... 97.4
O=C(N[C@H](Cc1c[nH]c2ccccc12)C(=O)Nc1ccncc1)c1ccc(-c2ccc(F)c(Cl)c2)cc1F ... 85.2
O=C(N[C@H](Cc1c[nH]c2ccccc12)C(=O)Nc1ccncc1)c1ccc(N2CCN(c3ccc(F)cc3F)CC2)cc1F ... 98.4
O=C(N[C@H](Cc1c[nH]c2ccccc12)C(=O)Nc1ccncc1)c1ccc(-c2cccc(C(F)(F)F)c2)cc1F ... 99.2

Query block: Quick check: inhibition in vivo at 50 mg/kg of O=C(N[C@H](Cc1c[nH]c2ccccc12)C(=O)Nc1ccncc1)c1ccc(-c2cccc(F)c2)cc1F ?
Result block: 71.3

Query block: Quick check: inhibition in vivo at 50 mg/kg of O=C(N[C@H](Cc1c[nH]c2ccccc12)C(=O)Nc1ccncc1)c1ccc(N2CCN(c3ccc(F)c(F)c3)CC2)cc1F ?
Result block: 98.6

Query block: Quick check: inhibition in vivo at 50 mg/kg of O=C(N[C@H](Cc1c[nH]c2ccccc12)C(=O)Nc1ccncc1)c1ccc(-c2ccc(F)c(F)c2)cc1F ?
Result block: 78.5

Query block: Quick check: inhibition in vivo at 50 mg/kg of O=C(N[C@H](Cc1c[nH]c2ccccc12)C(=O)Nc1ccncc1)c1ccc(N2CCN(c3cccc(Cl)c3)CC2)cc1F ?
Result block: 97.6

----------
# procedure.details: AUClast in mouse at 50 mg/kg, po in 20% HP-beta-CD
# Assay type: ADME, organism-based, Plasma
# Design: time 0 - last, dose 50 mg/kg, route oral
# measurement.setup: plasma
property.name: AUC(0-t) (µM·h)

Here's what some known entries look like.
O=C(N[C@H](Cc1c[nH]c2ccccc12)C(=O)Nc1ccncc1)c1ccc(-c2ccc(F)c(C(F)(F)F)c2)cc1F ... 26.6
O=C(N[C@H](Cc1c[nH]c2ccccc12)C(=O)Nc1ccncc1)c1ccc(-c2ccc(F)c(Cl)c2)cc1F ... 30.2

I = O=C(N[C@H](Cc1c[nH]c2ccccc12)C(=O)Nc1ccncc1)c1ccc(N2CCN(c3ccc(F)cc3F)CC2)cc1F
II = O=C(N[C@H](Cc1c[nH]c2ccccc12)C(=O)Nc1ccncc1)c1ccc(N2CCN(c3ccc(F)c(F)c3)CC2)cc1F
Query block: Of the pair I and II , name the member with the lesser recorded AUC(0-t). Provide the label of your selected option as the answer.
Result block: II

----------
# procedure.details: Cmax in mouse at 50 mg/kg, po in 20% HP-beta-CD
# Format: ADME, organism-based
# Set-up: dose 50 mg/kg, route oral
# measurement.setup: in vivo
property.name: Cmax (µM)

Here's what some known entries look like.
O=C(N[C@H](Cc1c[nH]c2ccccc12)C(=O)Nc1ccncc1)c1ccc(N2CCN(c3ccc(F)c(F)c3)CC2)cc1F ... 0.64
O=C(N[C@H](Cc1c[nH]c2ccccc12)C(=O)Nc1ccncc1)c1ccc(-c2cc(C(F)(F)F)ccc2F)cc1F ... 1.02
O=C(N[C@H](Cc1c[nH]c2ccccc12)C(=O)Nc1ccncc1)c1ccc(-c2ccc(F)c(Cl)c2)cc1F ... 5.88

I = O=C(N[C@H](Cc1c[nH]c2ccccc12)C(=O)Nc1ccncc1)c1ccc(-c2ccc(F)c(C(F)(F)F)c2)cc1F
II = O=C(N[C@H](Cc1c[nH]c2ccccc12)C(=O)Nc1ccncc1)c1ccc(N2CCN(c3ccc(F)cc3F)CC2)cc1F
Query block: Pick the one with the larger Cmax: I vs II Provide the label of your selected option as the answer.
Result block: I
